# Experimental System: EGFR L858R/C797S (Homo sapiens, UniProt P00533, C797S/L858R)
# Sequence (P00533 25-1210 C797S/L858R): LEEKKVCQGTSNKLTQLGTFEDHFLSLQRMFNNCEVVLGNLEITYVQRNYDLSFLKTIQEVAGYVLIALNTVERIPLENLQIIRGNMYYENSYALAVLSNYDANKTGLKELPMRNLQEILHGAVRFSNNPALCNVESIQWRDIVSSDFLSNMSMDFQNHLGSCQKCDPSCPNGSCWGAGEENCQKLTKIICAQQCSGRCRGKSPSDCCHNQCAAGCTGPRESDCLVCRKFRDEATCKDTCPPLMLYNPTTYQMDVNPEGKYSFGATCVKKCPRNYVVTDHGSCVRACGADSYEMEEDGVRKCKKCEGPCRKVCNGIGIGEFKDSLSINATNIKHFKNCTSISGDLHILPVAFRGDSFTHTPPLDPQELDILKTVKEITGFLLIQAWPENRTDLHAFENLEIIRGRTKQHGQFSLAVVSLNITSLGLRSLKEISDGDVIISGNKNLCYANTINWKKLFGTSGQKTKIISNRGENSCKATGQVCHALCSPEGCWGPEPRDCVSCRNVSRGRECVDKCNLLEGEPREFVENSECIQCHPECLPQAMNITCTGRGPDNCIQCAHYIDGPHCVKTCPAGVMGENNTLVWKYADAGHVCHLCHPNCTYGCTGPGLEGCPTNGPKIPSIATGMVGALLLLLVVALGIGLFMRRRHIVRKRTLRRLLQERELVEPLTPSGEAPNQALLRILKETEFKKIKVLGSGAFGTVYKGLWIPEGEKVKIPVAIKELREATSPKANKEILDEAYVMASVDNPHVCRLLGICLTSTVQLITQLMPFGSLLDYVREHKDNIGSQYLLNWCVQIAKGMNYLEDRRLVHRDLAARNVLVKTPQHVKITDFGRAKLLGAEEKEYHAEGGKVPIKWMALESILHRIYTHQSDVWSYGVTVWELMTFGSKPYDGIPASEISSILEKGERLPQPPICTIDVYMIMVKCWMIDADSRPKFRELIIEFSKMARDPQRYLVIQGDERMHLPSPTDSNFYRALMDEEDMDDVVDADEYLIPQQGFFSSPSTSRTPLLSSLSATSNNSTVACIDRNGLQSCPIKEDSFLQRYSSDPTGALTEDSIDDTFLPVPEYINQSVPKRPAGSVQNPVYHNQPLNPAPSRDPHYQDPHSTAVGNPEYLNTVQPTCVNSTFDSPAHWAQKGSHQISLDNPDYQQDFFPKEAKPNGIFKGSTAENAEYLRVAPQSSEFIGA
# Protocol Notes: Biochemical EGFR kinase inhibition assay (Lance Ultra TR-FRET), double mutant L858R/C797S
# Run Parameters: IC50 L858R/C797S (nM), 100 μM ATP
# Description: Biochemical EGFR kinase assays were conducted using Lance Ultra time-resolved fluorescence resonance energy transfer (TR-FRET) technology from Perkin-Elmer. […] Each kinase reactions were incubated at room temperature for 1 hour and then stopped by the addition of 4 μL of stop solution (10 mM EDTA). […] After 60 minutes incubation at room temperature the LANCE signal was measured on an EnVision Multilabel Reader (Perkin-Elmer). […]
Assay Endpoint: IC50
Phrase the answer as number then unit, nothing more needed.

Lab note: need IC50 for O=S(=O)(C1CC1)n1cc(-c2nccc(Nc3cc(N4CCC(CO)C4)c(C#Cc4cnn(CCF)c4)cn3)n2)cn1 (stereo not drawn) on EGFR L858R/C797S (Homo sapiens, UniProt P00533, C797S/L858R), anyone have it?
236 nM

// repeat for O=C(c1ccc(C#Cc2cnc(Nc3ccnc(-c4cnn(S(=O)(=O)C5CC5)c4)n3)cc2N2CCC[C@@H](O)C2)cc1)N1CCC(O)CC1 and report
549 nM

// repeat for O=S(=O)(C1CC1)n1cc(-c2nccc(Nc3cc(N[C@H]4CCC[C@@H](O)C4)c(C#Cc4ccc(CN5CCOCC5)cc4)cn3)n2)cn1 and report
98.5 nM

// repeat for CN(C)CC1(C)CCN(c2cc(Nc3ccnc(-c4cnn(S(=O)(=O)C5CC5)c4)n3)ncc2C#CC2CCO[C@H]2C(F)(F)F)CC1 (stereo partly drawn) and report
235 nM

// repeat for CS(=O)(=O)N1CCC(C#Cc2cnc(Nc3ccnc(-c4cnn(S(=O)(=O)C5CC5)c4)n3)cc2NC[C@H]2CC[C@H](CO)CC2)CC1 and report
624 nM

// repeat for O=S(=O)(C1CC1)n1cc(-c2nccc(Nc3cc(NC[C@H]4CC[C@H](O)CC4)c(C#Cc4cnn(C(F)F)c4)cn3)n2)cn1 and report
44.2 nM
